- Test system: U-2932
- test summary: growth inhibition by drug alone (1 - RLU/untreated control) (fraction); higher = stronger inhibition
- cond: 1000 nM; time (day): 6; 177Lu-lilotomab satetraxetan 0 ug/ml
Where a name gives a salt, the structure may show the parent alone.
Form field: growth inhibition by drug alone (one value per entry).

Please review the following examples before continuing.
molecule | metric | meas value
O=C(O)CCCc1ccccc1 [4-Phenylbutyrate] | growth inhibition by drug alone | -0.154
N#CC1(c2ccc(NC(=O)c3cccnc3NCc3ccncc3)cc2)CCCC1 [Apatinib (YN968D1)] | growth inhibition by drug alone | -0.279
COc1cccc2c1C(=O)c1c(O)c3c(c(O)c1C2=O)C[C@@](O)(C(=O)CO)C[C@@H]3O[C@H]1C[C@H](N)[C@H](O)[C@H](C)O1 [Doxorubicin (Adriamycin)] | growth inhibition by drug alone | 0.988
CCCC(CCC)C(=O)O [Valproic acid sodium salt (Sodium valproate)] | growth inhibition by drug alone | -0.131
Cc1ccc(-n2nc(C(C)(C)C)cc2NC(=O)Nc2ccc(OCCN3CCOCC3)c3ccccc23)cc1 [BIRB 796 (Doramapimod)] | growth inhibition by drug alone | 0.2

What value of growth inhibition by drug alone has been reported for the following molecule? CN(N=O)C(=O)N[C@@H](C=O)[C@@H](O)[C@H](O)[C@H](O)CO [Streptozotocin (Zanosar)]
-0.156

Now this one: CS(=O)(=O)c1ccc(C(=O)Nc2ccc(Cl)c(-c3ccccn3)c2)c(Cl)c1 [Vismodegib (GDC-0449)]
0.00134

====

- Tested on: U-2932
- test summary: growth inhibition by drug plus 177Lu-lilotomab satetraxetan (1 - RLU/untreated control) (fraction); higher = stronger inhibition
- cond: 10 nM; time (day): 5; 177Lu-lilotomab satetraxetan 1 ug/ml
metric: growth inhibition by drug plus 177Lu-lilotomab satetraxetan
Please reply with the number alone, leaving off any unit.

Please review the following examples before continuing.
compound | meas value
Nc1cccc2c1C(=O)N(C1CCC(=O)NC1=O)C2=O (stereo not drawn) [Pomalidomide] | 0.0448
C[C@]12CC[C@@H]3c4ccc(O)cc4CC[C@H]3[C@@H]1CC[C@@H]2O [Estradiol] | 0.146
CN1C(=O)C(Cc2c[nH]c3ccccc23)NC1=S (stereo not drawn) [Necrostatin-1] | 0.00349
CN(NC(=O)CC(=O)NN(C)C(=S)c1ccccc1)C(=S)c1ccccc1 [Elesclomol] | 0.914
Cn1cc(C2=C(c3ccc(Cl)cc3Cl)C(=O)NC2=O)c2ccccc21 | 0.017

What value of growth inhibition by drug plus 177Lu-lilotomab satetraxetan has been reported for the following compound? CC(C)[C@H](C(=O)Nc1ccc(C(=O)NO)cc1)c1ccccc1
0.0282

Now this one: CCN(CC)CCCCNc1ncc2cc(-c3cc(OC)cc(OC)c3)c(NC(=O)NC(C)(C)C)nc2n1
0.0568

Now this one: O=C(CCCCCCC(=O)Nc1ccccc1)NO [Vorinostat (SAHA)]
0.0234

====

- System: RIVA
- test summary: growth inhibition by drug plus 177Lu-lilotomab satetraxetan (1 - RLU/untreated control) (fraction); higher = stronger inhibition
- cond: 10 nM; time (day): 3; 177Lu-lilotomab satetraxetan 0.5 ug/ml
Use satisfied when the recorded growth inhibition by drug plus 177Lu-lilotomab satetraxetan is no lower than 0.5; use not satisfied when it is lower.

Reference set, count: 3
molecule | label value
COc1cc2c(NC3CCN(C)CC3)nc(N3CCCN(C)CC3)nc2cc1OCCCN(C)C | not satisfied
O=C(Nc1ncc([N+](=O)[O-])s1)c1ccc([N+](=O)[O-])c(Cl)c1 | satisfied
CN1C(=O)C(Cc2c[nH]c3ccccc23)NC1=S (centres undefined) | not satisfied

Hello, I need to know if CNC(=O)c1cc(Oc2ccc(NC(=O)Nc3cc(C(C)(C)C)nn3-c3ccc4ncccc4c3)c(F)c2)ccn1 [DCC-2036 (Rebastinib)] has measured growth inhibition by drug plus 177Lu-lilotomab satetraxetan not below 0.5. Thanks!
not satisfied

Now this one: COc1ccc(CCN(C)CCCOc2ccc(S(=O)(=O)c3c(C(C)C)n(C)c4ccccc34)cc2)cc1OC
satisfied

Now this one: Cc1ccc(-c2cc(C(F)(F)F)nn2-c2ccc(S(N)(=O)=O)cc2)cc1
not satisfied

The measured values listed here are drawn from the supplement of paper PMC6897291.
